tested on: LU99A; assay: relative viability (nuclei count vs DMSO), 5 days (fraction); higher = more cells survive; details: first compound 20 µM

| compound | relative viability |
| --- | --- |
| COCC1(CO)C(=O)C2CCN1CC2 (stereo not drawn) [PRIMA-1MET] + Cc1cc(Nc2cc(N3CCN(C)CC3)nc(Sc3ccc(NC(=O)C4CC4)cc3)n2)n[nH]1 [Tozasertib] (partner 0.1 µM) | 0.0311 |
| COCC1(CO)C(=O)C2CCN1CC2 (stereo not drawn) [PRIMA-1MET] + C[C@]1(O)C[C@@H](c2nc(-c3ccc4ccc(-c5ccccc5)nc4c3)c3c(N)nccn32)C1 [Linsitinib] (partner 1 µM) | 0.189 |
| COCC1(CO)C(=O)C2CCN1CC2 (stereo not drawn) [PRIMA-1MET] + O=C(c1cc(Cc2n[nH]c(=O)c3ccccc23)ccc1F)N1CCN(C(=O)C2CC2)CC1 [Olaparib] (partner 8 µM) | 0.0441 |
| COCC1(CO)C(=O)C2CCN1CC2 (stereo not drawn) [PRIMA-1MET] + CC(=O)c1c(C)c2cnc(Nc3ccc(N4CCNCC4)cn3)nc2n(C2CCCC2)c1=O [Palbociclib] (partner 0.5 µM) | 0.225 |
| COCC1(CO)C(=O)C2CCN1CC2 (stereo not drawn) [PRIMA-1MET] + Cc1nc(NC(=O)N2CCC[C@H]2C(N)=O)sc1-c1ccnc(C(C)(C)C(F)(F)F)c1 [Alpelisib] (partner 2 µM) | 0.0448 |
| COCC1(CO)C(=O)C2CCN1CC2 (stereo not drawn) [PRIMA-1MET] + COc1cccc2cc(-c3nc([C@H]4CC[C@H](C(=O)O)CC4)n4ncnc(N)c34)[nH]c12 [OSI-027] (partner 0.5 µM) | 0.0893 |
| COCC1(CO)C(=O)C2CCN1CC2 (stereo not drawn) [PRIMA-1MET] + Nc1ncn([C@H]2C[C@H](O)[C@@H](CO)O2)c(=O)n1 [Decitabine] (partner 2 µM) | 0.51 |
| COCC1(CO)C(=O)C2CCN1CC2 (stereo not drawn) [PRIMA-1MET] + CC(C)C[C@H](NC(=O)[C@H](Cc1ccccc1)NC(=O)c1cnccn1)B(O)O [Bortezomib] (partner 0.002 µM) | 0.103 |

====

Property: relative viability; scope: individual compounds
system: NCI-H1915; assay: relative viability (nuclei count vs DMSO), 5 days (fraction); higher = more cells survive; settings: first compound 0.8 µM

| compound | relative viability |
| --- | --- |
| COc1nc(C)cnc1NS(=O)(=O)c1cccnc1-c1ccc(-c2nnco2)cc1 [Zibotentan] + O=C(c1cc(Cc2n[nH]c(=O)c3ccccc23)ccc1F)N1CCN(C(=O)C2CC2)CC1 [Olaparib] (partner 8 µM) | 0.254 |
| COc1nc(C)cnc1NS(=O)(=O)c1cccnc1-c1ccc(-c2nnco2)cc1 [Zibotentan] + CC(=O)c1c(C)c2cnc(Nc3ccc(N4CCNCC4)cn3)nc2n(C2CCCC2)c1=O [Palbociclib] (partner 0.5 µM) | 0.546 |
| COc1nc(C)cnc1NS(=O)(=O)c1cccnc1-c1ccc(-c2nnco2)cc1 [Zibotentan] + Nc1ncn([C@H]2C[C@H](O)[C@@H](CO)O2)c(=O)n1 [Decitabine] (partner 2 µM) | 0.27 |
| COc1nc(C)cnc1NS(=O)(=O)c1cccnc1-c1ccc(-c2nnco2)cc1 [Zibotentan] + CS(=O)(=O)N1CCN(Cc2cc3nc(-c4cccc5[nH]ncc45)nc(N4CCOCC4)c3s2)CC1 [Pictilisib] (partner 1 µM) | 0.873 |
| COc1nc(C)cnc1NS(=O)(=O)c1cccnc1-c1ccc(-c2nnco2)cc1 [Zibotentan] + Cc1nc(NC(=O)N2CCC[C@H]2C(N)=O)sc1-c1ccnc(C(C)(C)C(F)(F)F)c1 [Alpelisib] (partner 2 µM) | 1.09 |
| O=c1cc(-c2cccc3c2Sc2ccccc2S3)oc(N2CCOCC2)c1 + N=C(N)NC(=N)NCCc1ccccc1 [Phenformin] (partner 250 µM) | 0.436 |
| COc1nc(C)cnc1NS(=O)(=O)c1cccnc1-c1ccc(-c2nnco2)cc1 [Zibotentan] + NC(=O)Nc1cc(-c2cccc(F)c2)sc1C(=O)N[C@H]1CCCNC1 [AZD7762] (partner 0.2 µM) | 0.597 |
| COc1nc(C)cnc1NS(=O)(=O)c1cccnc1-c1ccc(-c2nnco2)cc1 [Zibotentan] + C[C@@H](Oc1cc(-c2cnn(C3CCNCC3)c2)cnc1N)c1c(Cl)ccc(F)c1Cl [Crizotinib] (partner 1 µM) | 0.957 |
| COc1nc(C)cnc1NS(=O)(=O)c1cccnc1-c1ccc(-c2nnco2)cc1 [Zibotentan] + COc1cc2c(Oc3ccc(NC(=O)C4(C(=O)Nc5ccc(F)cc5)CC4)cc3F)ccnc2cc1OCCCN1CCOCC1 [Foretinib] (partner 0.25 µM) | 1.06 |
